The measured values listed here are drawn from the supplement of paper PMC12669032.

Listed below: growth AUC values for each entry.
Test system: Bacteroides dorei
Experiment: growth AUC relative to DMSO control (median of replicates) (fraction); higher = more growth (less inhibition), active = hit call of the paper
Conditions: 20 µM; 24 h

compound: Cc1ccccc1CO[C@@H]1C[C@@]2(C(C)C)CC[C@]1(C)O2 (mixture of isomers)
growth AUC: 0.977
--
compound: COC(=O)NC(=S)Nc1ccccc1NC(=S)NC(=O)OC
growth AUC: 1.01
--
compound: CON(C)C(=O)Nc1ccc(Br)cc1
growth AUC: 0.992
--
compound: O=C(Nc1ccccc1)Nc1cnns1
growth AUC: 0.918
--
compound: COC(=O)Nc1nc2ccccc2[nH]1
growth AUC: 1.01
--
compound: CNC(=O)c1cc(Cl)cc(C)c1NC(=O)c1cc(Br)nn1-c1ncccc1Cl
growth AUC: 0.999
--
compound: COP(=O)(OC)Oc1ccc(S(C)(=O)=O)c(C)c1
growth AUC: 0.987
--
compound: COP(=S)(NC(C)C)Oc1ccccc1C(=O)OC(C)C (centres undefined)
growth AUC: 0.942
--
compound: O.[Br-].[Br-].c1cc[n+]2c(c1)-c1cccc[n+]1CC2
growth AUC: 0.996
--
compound: CC(C)N(C(=O)COc1nnc(C(F)(F)F)s1)c1ccc(F)cc1
growth AUC: 0.996
--
compound: CC(C)OC(=O)Nc1cccc(Cl)c1
growth AUC: 0.948
--
compound: O=P(OCCCl)(OCCCl)OCCCl
growth AUC: 0.995
--
compound: CC(CCl)OP(=O)(OC(C)CCl)OC(C)CCl (mixture of isomers)
growth AUC: 0.973
--
compound: COCC(C)N(C(=O)CCl)c1c(C)csc1C (centres undefined)
growth AUC: 0.929
--
compound: O=[N+]([O-])c1cc(Cl)ccc1Cl
growth AUC: 0.986
--
compound: COc1ccc(/C(=C/C(=O)N2CCOCC2)c2ccc(F)cc2)cc1OC
growth AUC: 0.953
--
compound: ClC1=C(Cl)C2(Cl)[C@H]3[C@H]4O[C@H]4[C@H](Cl)[C@H]3C1(Cl)C2(Cl)Cl (single isomer, unassigned; isomer a)
growth AUC: 1
--
compound: CCCOC(=O)c1ccccc1C(=O)OCCC
growth AUC: 0.983
--
compound: ClC1(Cl)C2(Cl)C3(Cl)C4(Cl)C(Cl)(Cl)C5(Cl)C3(Cl)C1(Cl)C5(Cl)C24Cl (centres undefined)
growth AUC: 1.01
